system: Fes (UniProt P07332)
Sequence (P07332 whole entry, looked up): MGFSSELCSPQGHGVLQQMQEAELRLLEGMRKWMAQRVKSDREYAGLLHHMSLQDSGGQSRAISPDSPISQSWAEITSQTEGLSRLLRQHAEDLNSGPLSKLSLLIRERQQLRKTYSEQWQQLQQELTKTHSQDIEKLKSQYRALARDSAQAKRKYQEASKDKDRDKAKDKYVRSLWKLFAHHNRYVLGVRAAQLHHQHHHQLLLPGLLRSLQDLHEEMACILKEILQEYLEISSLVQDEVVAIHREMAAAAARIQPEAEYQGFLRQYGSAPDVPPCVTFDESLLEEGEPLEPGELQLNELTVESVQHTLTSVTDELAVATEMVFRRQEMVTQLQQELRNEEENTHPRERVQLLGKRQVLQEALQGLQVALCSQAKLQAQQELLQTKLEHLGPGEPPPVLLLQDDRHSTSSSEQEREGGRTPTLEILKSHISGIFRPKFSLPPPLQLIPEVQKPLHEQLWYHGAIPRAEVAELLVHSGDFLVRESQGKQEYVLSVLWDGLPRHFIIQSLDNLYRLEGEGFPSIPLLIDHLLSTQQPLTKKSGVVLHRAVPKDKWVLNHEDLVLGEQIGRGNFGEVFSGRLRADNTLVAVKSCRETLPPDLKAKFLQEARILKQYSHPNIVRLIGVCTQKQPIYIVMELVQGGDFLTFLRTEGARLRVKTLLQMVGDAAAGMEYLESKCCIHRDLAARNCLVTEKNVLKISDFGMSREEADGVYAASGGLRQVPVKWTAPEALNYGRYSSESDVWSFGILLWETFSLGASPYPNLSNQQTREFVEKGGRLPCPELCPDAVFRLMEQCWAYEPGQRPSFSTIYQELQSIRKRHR
testDetails: phosphorylation enrichment, bacterial display (enrichment ratio); higher = better substrate or ligand; peptides without Tyr show the background
Kind request: treat 0.8 as inclusive, so phosphorylation enrichment at 0.8 or higher is Y, anything lower is N.

Consider the worked cases shown below.
TVSSDYLHPQY [CCPG1_Y569_F566S]
N
PEIIAYQPFGK [PRKCG_Y529_YF]
Y
AKKKMYSCKTK [AGXT_Y231_R233C]
Y
SHRQDYLVGNK [GSTA1_Y147_G144R]
N
KNAEKYAEEDW [HSPA9_Y568_R573W]
Y

Check if phosphorylation enrichment >= 0.8 (inclusive). Item: PGVDIYVSPNM [PADI3_Y51_I52V]
Y

* * *

system: Grb2 SH2 (UniProt P62993)
Sequence (P62993 whole entry, looked up): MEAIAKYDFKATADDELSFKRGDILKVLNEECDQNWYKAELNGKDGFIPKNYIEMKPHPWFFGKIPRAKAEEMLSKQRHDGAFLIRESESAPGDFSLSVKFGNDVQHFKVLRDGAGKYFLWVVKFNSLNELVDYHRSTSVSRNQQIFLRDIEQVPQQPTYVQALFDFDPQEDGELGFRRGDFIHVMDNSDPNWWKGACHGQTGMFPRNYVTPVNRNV
testDetails: SH2 binding enrichment of the phosphorylated peptide, bacterial display (enrichment ratio); higher = better substrate or ligand; peptides without Tyr show the background
Binary call on SH2 binding enrichment: condition met from 0.8 upward, condition not met beneath that.

Reference set, count: 5
ILGRFYERGSI [PAX5_Y73_T75R_YF]
condition not met
STLEVYSCHPP [IL21R_Y317]
condition not met
RAKLFYQEVPA [METTL11B_Y76]
condition not met
TESALYGCTVV [KIAA1804_Y724_L729V]
condition not met
NLMPAYYKCIQ [CYP21A2_Y190]
condition not met

Does SH2 binding enrichment meet or surpass 0.8 for VAMELYVFRGV [GAN_Y471_G474R] ?
condition met

Could you please find out whether FLAVGYHMPHI [IDS_Y225_K227M] has SH2 binding enrichment that meets 0.8 or exceeds it?
condition met

Is it the case that LTAEVYFPSIK [C5orf64_Y60] has SH2 binding enrichment reaching or exceeding 0.8?
condition not met

Could you verify whether the entry AFLLLCFNDTH [BMP15_Y235_Y235C] shows SH2 binding enrichment of no less than 0.8?
condition met

Determine whether measured SH2 binding enrichment meets or exceeds 0.8 for EKFVPYYDLFM [IPO5_Y530]
condition met

I'd appreciate it if you could say whether HMRLRYLAAEE [CEP120_Y884_Q879H] has SH2 binding enrichment at least equal to 0.8.
condition met

State whether the measured SH2 binding enrichment reaches 0.8, counting equality as reaching it, for RRKRAYVEIEY [MAK16_Y282_Q277R]
condition met

Textbook exercise: given the entry EEALHYLTRVE [SET_Y119] , state whether its SH2 binding enrichment is greater than or equal to 0.8.
condition not met

* * *

Tested on: c-Abl (mouse)
testDetails: phosphorylation enrichment, bacterial display (enrichment ratio); higher = better substrate or ligand; peptides without Tyr show the background
Each entry below carries its reported phosphorylation enrichment.
API note: the answer field is a bare number with no unit suffix.

Previously resolved entries follow.
ELAINYQEQAS [SLC9A9_Y591]
0.504
FLGKGYSDGGC [MC4R_Y35_S30F]
0.818
TNLVPYPCIHF [TUBA1A_Y262_R264C]
0.646
TIAIRYSHSRR [ACOXL_Y260]
0.655
LLKANYELLNA [POLR3A_Y714_K713N]
0.949
LGSVVYAQSKE [KCNQ2_Y226_H228Q]
1.24
SVESPYGSVTF [NDRG2_Y47_T45S]
0.57
HLVLNYGVCFC [JAK2_Y613_V617F]
1.29

What value of measured phosphorylation enrichment is listed for IKSSIYDNRNE [ARAP2_Y380_K384N] ?
0.397

Using the record for GCKNRYDEDKP [THAP1_Y14_K16E] , report its phosphorylation enrichment.
0.512

Given the sequence LRVKMYNFLRS [ADGRG7_Y760] , what is its reported phosphorylation enrichment?
1.25

Item under review: DPLLTYWFPPK [LMNA_Y481_R482W] . Reported phosphorylation enrichment?
11.6

I have this sequence here, NNDLCYWVPEL [IARS1_Y434] , and I need its recorded phosphorylation enrichment.
8.63

If you can, please state the reported phosphorylation enrichment value of RSGIFYKPESL [L2HGDH_Y103_H98R_YF] .
0.706

Values from the supplement of paper PMC10065799
